Listed next: entries and their corresponding log10(concentration at 4 h).
ASSAY EXPLANATION: Drug level in Sprague-Dawley rat liver at 5 mg/kg, po after 4 hrs by LC/MS analysis
Assay type: ADME, organism-based
Parameters: dose 5 mg/kg, route oral
RUN CONDITIONS: read-out: Drug uptake
METRIC NAME: log10(concentration at 4 h) (log10 of the value in nM)

[
  {
    "STRUCTURE": "C=C[C@@H]1C[C@]1(NC(=O)[C@@H]1C[C@@H]2CN1C(=O)[C@H](C(C)(C)C)NC(=O)OCCCCC/C=C/c1cccc3c1CN(C3)C(=O)O2)C(=O)NS(=O)(=O)C1CC1",
    "METRIC NAME": "log10(concentration at 4 h)",
    "VALUE": 2.15
  },
  {
    "STRUCTURE": "C=C[C@@H]1C[C@]1(NC(=O)[C@@H]1C[C@@H]2CN1C(=O)[C@H](C(C)(C)C)NC(=O)OCCC/C=C/c1cccc3c1CN(C3)C(=O)O2)C(=O)NS(=O)(=O)C1CC1",
    "METRIC NAME": "log10(concentration at 4 h)",
    "VALUE": 2.96
  },
  {
    "STRUCTURE": "C=C[C@@H]1C[C@]1(NC(=O)[C@@H]1C[C@@H]2CN1C(=O)[C@H](C(C)(C)C)NC(=O)OCCCC/C=C/c1cccc3c1CN(C3)C(=O)O2)C(=O)NS(=O)(=O)C1CC1",
    "METRIC NAME": "log10(concentration at 4 h)",
    "VALUE": 2.36
  },
  {
    "STRUCTURE": "C=C[C@@H]1C[C@]1(NC(=O)[C@@H]1C[C@@H]2CN1C(=O)[C@H](C(C)(C)C)NC(=O)OCCC/C=C/c1cccc3c1CN(CC3)C(=O)O2)C(=O)NS(=O)(=O)C1CC1",
    "METRIC NAME": "log10(concentration at 4 h)",
    "VALUE": 3.54
  },
  {
    "STRUCTURE": "C=C[C@@H]1C[C@]1(NC(=O)[C@@H]1C[C@@H]2CN1C(=O)[C@H](C(C)C)NC(=O)OCCC/C=C/c1cccc3c1CN(C3)C(=O)O2)C(=O)NS(=O)(=O)C1CC1",
    "METRIC NAME": "log10(concentration at 4 h)",
    "VALUE": 2.64
  }
]
